Where these numbers come from: paper PMC3855825

- system: TgDHOD (Toxoplasma gondii)
- protocolText: Inhibition of recombinant TgDHOD-VSSM, DCIP reduction assay with QD
metricName: pKi
Notebook: values listed as pKi are -log10 of the concentration (mol/L).

Value lookup for pKi; key = `COc1ccccc1-c1ccc(NC(=O)C(C#N)=C(C)O)c(Cl)c1`
4.74
